Where do the numbers come from? From patent US8143288B2.

Tested on: HCV 1b-377-neo replicon cells
Assay: HCV replicon FRET assay
Assay type: cell-based
Details: Hepatitis C virus; HCV replicon; read-out: Activity (EC50)
pEC50: −log10 of the molar value.
Each record here notes measured pEC50.

{"columns": ["COMPOUND", "REPORTED_PROPERTY", "RESULT"],
 "data": [
  ["NC(=O)C1(C(=O)N2CCC[C@H]2C(=O)Nc2ccc(/C=C/c3ccc(NC(=O)[C@@H]4CCCN4C(=O)C4(C(N)=O)CC4)cc3)cc2)CC1 [Example 62]", "pEC50", "6.00 to 7.00"],
  ["COCC(=O)N1CCC[C@H]1C(=O)Nc1ccc(/C=C/c2ccc(NC(=O)[C@@H]3CCCN3C(=O)COC)cc2)cc1 [Example 47]", "pEC50", "6.00 to 7.00"]
]}

Next, consider the following compound.
Qu. What does the data say about its pEC50? Entry: COc1cccc(C(=O)N2CCC[C@H]2C(=O)Nc2ccc(/C=C/c3ccc(NC(=O)[C@@H]4CCCN4C(=O)c4cccc(OC)c4OC)cc3)cc2)c1OC [Example 146]
Ans. 5.00 to 6.00

----------
Tested on: HCV 1b-377-neo replicon cells
Experiment: HCV replicon FRET assay
Type: cell-based
Conditions: Hepatitis C virus; HCV replicon; read-out: Activity (EC50)
Excerpt: The HCV replicon cell line was isolated from colonies as described by Lohman, et. al. (Science 1999, 285, 110-113, expressly incorporated by reference in its entirety) and used for all experiments. The HCV replicon has the nucleic acid sequence set forth in EMBL Accession No.: AJ242652, the coding sequence of which is from nt 1801 to 7758. […]
Each record here notes measured EC50.

Before answering, review these 4 worked examples.
{"columns": ["INPUT_SMILES", "EC50"],
 "data": [
  ["CN(C)CC(=O)N1CCC[C@H]1C(=O)Nc1ccc(/C=C/c2ccc(NC(=O)[C@@H]3CCCN3C(=O)c3ccc(N(C)C)cc3)cc2)cc1", "100 to 1000 nM"],
  ["CCC(=O)c1ccccc1C(=O)N1CCC[C@H]1C(=O)Nc1ccc(/C=C/c2ccc(NC(=O)[C@@H]3CCCN3C(=O)c3ccccc3C(=O)CC)cc2)cc1", "1000 to 10000 nM"],
  ["CCOc1ccccc1C(=O)N1CCC[C@H]1C(=O)Nc1ccc(/C=C/c2ccc(NC(=O)[C@@H]3CCCN3C(=O)c3ccccc3OCC)cc2)cc1", "1000 to 10000 nM"],
  ["O=C(Nc1ccc(/C=C/c2ccc(NC(=O)[C@@H]3COCN3C(=O)OCc3ccccc3)cc2)cc1)[C@@H]1COCN1C(=O)OCc1ccccc1", "1000 to 10000 nM"]
]}

Qu. What does the data say about its EC50? Entry: O=C(Nc1ccc(/C=C/c2ccc(NC(=O)[C@@H]3CCCN3C(=O)[C@@H]3CCCO3)cc2)cc1)[C@@H]1CCCN1C(=O)[C@@H]1CCCO1
Ans. 100 to 1000 nM

Qu. Follow-up entry: CC(C)(C)O[C@@H]1C[C@@H](C(=O)Nc2ccc(/C=C/c3ccc(NC(=O)[C@@H]4C[C@@H](OC(C)(C)C)CN4C(=O)OCc4ccccc4)cc3)cc2)N(C(=O)OCc2ccccc2)C1
Ans. 100 to 1000 nM

Qu. Follow-up entry: O=C(Nc1ccc(/C=C/c2ccc(NC(=O)[C@@H]3CCCN3C(=O)c3ccno3)cc2)cc1)[C@@H]1CCCN1C(=O)c1ccno1
Ans. 0.1 to 90 nM

Qu. Follow-up entry: O=C(Nc1ccc(/C=C/c2ccc(NC(=O)[C@@H]3CCCN3C(=O)Cc3ccccc3OCc3ccccc3)cc2)cc1)[C@@H]1CCCN1C(=O)Cc1ccccc1OCc1ccccc1
Ans. 1000 to 10000 nM

Qu. Follow-up entry: N#CC1(C(=O)N2CCC[C@H]2C(=O)Nc2ccc(/C=C/c3ccc(NC(=O)[C@@H]4CCCN4C(=O)C4(C#N)CC4)cc3)cc2)CC1
Ans. 0.1 to 90 nM

Qu. Follow-up entry: [N-]=[N+]=Nc1cccc(CC(=O)N2CCC[C@H]2C(=O)Nc2ccc(/C=C/c3ccc(NC(=O)[C@@H]4CCCN4C(=O)CCCC[C@@H]4SC[C@@H]5NC(=O)N[C@@H]54)cc3)cc2)c1
Ans. 100 to 1000 nM

Qu. Follow-up entry: Cc1nc(C(F)(F)F)ccc1C(=O)N1CCC[C@H]1C(=O)Nc1ccc(/C=C/c2ccc(NC(=O)[C@@H]3CCCN3C(=O)c3ccc(C(F)(F)F)nc3C)cc2)cc1
Ans. 100 to 1000 nM

Qu. Follow-up entry: COc1cccc(CCC(=O)N2CCC[C@H]2C(=O)Nc2ccc(/C=C/c3ccc(NC(=O)[C@@H]4CCCN4C(=O)CCc4cccc(OC)c4)cc3)cc2)c1
Ans. 100 to 1000 nM

Qu. Follow-up entry: CSCC(=O)N1CCC[C@H]1C(=O)Nc1ccc(/C=C/c2ccc(NC(=O)[C@@H]3CCCN3C(=O)Cc3cccs3)cc2)cc1
Ans. 0.1 to 90 nM
